- assay target: T1, human SIRPα v1 ECD recombinant protein (human, UniProt P78324 31-373)
- T1 construct: extracellular domain; Coated on the ELISA plate
- T1 sequence (P78324 31-373): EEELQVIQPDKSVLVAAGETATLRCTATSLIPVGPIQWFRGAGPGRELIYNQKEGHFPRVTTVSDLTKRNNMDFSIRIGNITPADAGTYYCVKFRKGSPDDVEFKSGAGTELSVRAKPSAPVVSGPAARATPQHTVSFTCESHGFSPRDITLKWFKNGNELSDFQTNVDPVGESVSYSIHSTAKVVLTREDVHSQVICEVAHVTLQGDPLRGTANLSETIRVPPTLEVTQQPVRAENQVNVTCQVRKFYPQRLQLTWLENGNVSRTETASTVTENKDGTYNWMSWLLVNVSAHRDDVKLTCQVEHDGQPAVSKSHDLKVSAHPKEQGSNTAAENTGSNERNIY
- assay text: competitive ELISA, plate-coated human SIRPα v1 ECD; blocked ligand: mFc tagged human CD47 ECD
In this section we review reported IC50 values for a set of binders.
Enter your answer as a number in nM; do not include the unit.

Past entries and their recorded results:
[[record]]
binder = "Anti-SIRPα antibody C42 (antibody, human IgG4, V domains shown, Mouse variable regions; also called 042c) VH: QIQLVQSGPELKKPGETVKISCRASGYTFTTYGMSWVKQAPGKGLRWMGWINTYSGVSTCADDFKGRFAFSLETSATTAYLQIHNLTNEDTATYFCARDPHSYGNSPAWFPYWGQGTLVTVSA VL: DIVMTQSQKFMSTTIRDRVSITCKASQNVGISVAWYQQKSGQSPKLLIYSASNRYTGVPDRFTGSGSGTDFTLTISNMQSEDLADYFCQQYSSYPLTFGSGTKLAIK"
measured_parameter = "IC50"
recorded_number = 3.6

[[record]]
binder = "Anti-SIRPα antibody C15 (antibody, V domains shown, Mouse variable regions; tested as purified chimeric antibody; also called 015c) VH: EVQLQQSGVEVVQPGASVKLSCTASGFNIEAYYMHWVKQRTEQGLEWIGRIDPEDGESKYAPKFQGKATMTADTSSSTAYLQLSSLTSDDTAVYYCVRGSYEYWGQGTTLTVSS VL: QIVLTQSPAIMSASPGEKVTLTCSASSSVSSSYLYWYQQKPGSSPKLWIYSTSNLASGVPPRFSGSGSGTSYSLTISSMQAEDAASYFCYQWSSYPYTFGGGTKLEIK"
measured_parameter = "IC50"
recorded_number = 2.32

[[record]]
binder = "Anti-SIRPα antibody C59 (antibody, V domains shown, Mouse variable regions; tested as purified chimeric antibody; also called 059c) VH: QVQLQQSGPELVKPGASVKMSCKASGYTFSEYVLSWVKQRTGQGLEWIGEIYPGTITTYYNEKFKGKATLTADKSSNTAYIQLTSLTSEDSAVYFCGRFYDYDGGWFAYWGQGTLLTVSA VL: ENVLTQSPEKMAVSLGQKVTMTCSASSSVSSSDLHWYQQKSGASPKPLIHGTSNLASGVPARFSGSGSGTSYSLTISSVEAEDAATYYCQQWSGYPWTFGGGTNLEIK"
measured_parameter = "IC50"
recorded_number = 2.63

[[record]]
binder = "Anti-SIRPα antibody C25 (antibody, V domains shown, Mouse variable regions; also called 025c; 025) VH: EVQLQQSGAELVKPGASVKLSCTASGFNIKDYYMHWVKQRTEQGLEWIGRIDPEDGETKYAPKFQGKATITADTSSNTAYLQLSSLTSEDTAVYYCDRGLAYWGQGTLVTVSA VL: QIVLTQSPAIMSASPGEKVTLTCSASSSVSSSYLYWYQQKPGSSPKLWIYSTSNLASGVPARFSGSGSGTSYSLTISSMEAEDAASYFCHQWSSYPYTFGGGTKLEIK"
measured_parameter = "IC50"
recorded_number = 2.12


Let us examine a further case.
Consider Anti-SIRPα antibody C73 (antibody, human IgG4, V domains shown, Mouse variable regions; also called 073c; 073C) VH: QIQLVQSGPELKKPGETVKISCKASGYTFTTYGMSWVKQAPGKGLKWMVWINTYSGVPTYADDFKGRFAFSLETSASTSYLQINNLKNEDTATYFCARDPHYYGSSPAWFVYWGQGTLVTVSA VL: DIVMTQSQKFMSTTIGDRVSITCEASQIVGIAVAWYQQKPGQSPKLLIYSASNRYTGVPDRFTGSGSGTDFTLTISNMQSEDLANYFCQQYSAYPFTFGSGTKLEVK . Its measured IC50 is 2.74
